Where do these numbers come from? They come from patent US8048892B2.

# TESTED_SYSTEM: HIF PHD2 (Homo sapiens, UniProt Q9GZT9)
# Sequence (Q9GZT9 whole entry): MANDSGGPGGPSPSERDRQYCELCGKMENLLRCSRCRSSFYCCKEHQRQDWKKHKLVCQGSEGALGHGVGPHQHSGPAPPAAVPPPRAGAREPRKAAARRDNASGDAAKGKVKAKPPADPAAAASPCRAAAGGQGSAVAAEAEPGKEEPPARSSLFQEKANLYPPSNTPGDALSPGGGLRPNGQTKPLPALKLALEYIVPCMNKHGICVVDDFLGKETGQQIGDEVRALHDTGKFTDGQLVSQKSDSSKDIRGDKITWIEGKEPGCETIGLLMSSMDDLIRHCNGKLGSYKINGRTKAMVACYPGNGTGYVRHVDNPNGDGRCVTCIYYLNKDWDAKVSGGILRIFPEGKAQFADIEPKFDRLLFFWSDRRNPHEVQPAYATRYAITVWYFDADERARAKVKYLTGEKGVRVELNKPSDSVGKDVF
Structures can show the parent of a compound that is named as a salt.
MEASURED_ENDPOINT: IC50

compound="Cn1c(=O)c(C(=O)NCC(=O)O)c(O)c2cc(C3=CCNCC3)ncc21 [Example 114, Trifluoroacetic acid salt]" tested_system="HIF PHD2 (Homo sapiens, UniProt Q9GZT9)" measured_endpoint=IC50 meas_value="0.05 to 0.1 µM"
compound="CN(C)c1ccc(-c2cnc3c(c2)c(O)c(C(=O)NCC(=O)O)c(=O)n3C)cn1 [Example 62]" tested_system="HIF PHD2 (Homo sapiens, UniProt Q9GZT9)" measured_endpoint=IC50 meas_value="< 0.05 µM"
compound="C#Cc1cnc2c(O)c(C(=O)NCC(=O)O)c(=O)n(C)c2c1 [Example 7]" tested_system="HIF PHD2 (Homo sapiens, UniProt Q9GZT9)" measured_endpoint=IC50 meas_value="< 0.05 µM"
compound="CC(=O)N1CCC(c2cc3c(O)c(C(=O)NCC(=O)O)c(=O)n(C)c3cn2)CC1 [Example 119, Trifluoroacetic acid salt]" tested_system="HIF PHD2 (Homo sapiens, UniProt Q9GZT9)" measured_endpoint=IC50 meas_value="< 0.05 µM"
